B1: Pistol ribozyme (parent)
chain: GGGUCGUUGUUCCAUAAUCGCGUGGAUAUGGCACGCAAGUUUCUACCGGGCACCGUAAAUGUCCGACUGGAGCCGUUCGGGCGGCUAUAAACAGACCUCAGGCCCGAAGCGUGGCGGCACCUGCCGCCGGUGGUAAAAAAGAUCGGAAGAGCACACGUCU

variants of: B1; assay: aptazyme ON/OFF ratio, guanine; higher = stronger switching; co-transcriptional cleavage with and without guanine
metric: aptazyme ON/OFF ratio
Note: the reply should be a number with no unit written.

Here's what some known entries look like.
[
  {
    "variantId": "U8G U11G C12G C13A",
    "recordedNumber": 1.08
  },
  {
    "variantId": "U7C G9A U10A U11G",
    "recordedNumber": 1.27
  },
  {
    "variantId": "U7A U8A G9U U11C C12U C13G",
    "recordedNumber": 1.02
  },
  {
    "variantId": "U7A U10G C13A",
    "recordedNumber": 1.31
  },
  {
    "variantId": "G9A U10G U11G C12G C13U",
    "recordedNumber": 1.15
  },
  {
    "variantId": "U8G G9C U10G C12G C13A",
    "recordedNumber": 1.08
  }
]

The record that follows has no aptazyme ON/OFF ratio shown yet.
(Q) Look up and state reported aptazyme ON/OFF ratio for U7C U8G G9U U10C U11C C12G
(A) 1.07
